# assay notes: log P by HPLC on reversed-phase C18, LC-MS, pH 2.7, formic acid (HCOOH)
# Format: physicochemical
# test parameters: reversed-phase C18 HPLC column; HPLC C18, pH 2.7, 0.1% aqueous formic acid/acetonitrile
Classify as follows. Reported chromatographic logP greater than or equal to 3: 1.0. Reported chromatographic logP below: 0.0.

Here are 3 compounds together with their reported answers.
Cc1cc(F)c(-n2cnc(C(F)F)n2)cc1SCC1CC1 [I-A-31] | 1.0
Cc1cc(C)c(-n2cnc(C(F)(F)C(F)(F)F)n2)cc1SCC(F)F [I-A-7] | 1.0
Cc1cc(F)c(-n2cnc(C(F)F)n2)cc1SCC#N [I-A-24] | 0.0

Next, consider the following compound.
I'd appreciate it if you could say whether Cc1ccc(-n2cnc(C(F)F)n2)c(F)c1 [IV-A-3] has chromatographic logP at least equal to 3.
0.0

---

# assay notes: log P by HPLC on reversed-phase C18, LC-MS, pH 2.7, formic acid (HCOOH)
# Format: physicochemical
# test parameters: reversed-phase C18 HPLC column; HPLC C18, pH 2.7, 0.1% aqueous formic acid/acetonitrile
property name: chromatographic logP
Lab note: jot down the number only; don't add units.

Cc1ccc(NNC(=O)C(F)(F)C(F)(F)Cl)c(C)c1 | 2.96
CSc1cc(-n2cnc(C(F)F)n2)c(F)cc1C | 2.93
Cc1cc(C)c([S+]([O-])CC(F)(F)C(F)F)cc1-n1cnc(C(F)F)n1 (stereo not drawn) | 2.35
Cc1cc(C)c(-n2cnc(C(F)F)n2)cc1SCC1CC1 | 3.85
Cc1cc(C)c(-n2cnc(C(F)F)n2)cc1SCC(F)(F)C(F)(F)F | 3.86

With those in mind, consider the next molecule.
Quick one: chromatographic logP for `Cc1ccc(-n2cnc(C(F)(F)C(F)F)n2)c(C)c1` ?
3.08
